Listed here: items and their measured MIC Ea.
System: Erwinia amylovora PMV6076
assay_details: MIC, in vitro growth inhibition
Assay type: cell-based
condition_details: TSB, 25°C, 48 h, OD 600 nm; tested at 3.1, 6.2, 12.5, 25, 50 μM; three replicates, experiment repeated twice; MIC = lowest concentration with no growth
Where a SMILES comes first, the peptide text is derived from it. [ ]: non-standard residue; d: D form. The star is where a group is joined. Palmitoyl = CCCCCCCCCCCCCCCC(=O)*; Hexanoyl = CCCCCC(=O)*; Butyryl = CCCC(=O)*

Below, 2 compounds whose answers are already recorded.
* CCCC(=O)NCCCC[C@@H]1NC(=O)[C@H](CCCCN)NC(=O)[C@H](CC(C)C)NC(=O)[C@H](CCCCN)NC(=O)[C@H](CCCCN)NC(=O)[C@H](CCC(N)=O)NC(=O)[C@H](CC(C)C)NC(=O)[C@H](CCCCN)NC(=O)[C@H](CCCCN)NC(=O)[C@@H](Cc2ccccc2)NC1=O [BPC712, c(KKLKK(CO-C3H7)fKKLQ)] (cyclo(KKLKK(Butyryl)[dF]KKLQ)) | 25 to 50 µM
* CCCCCCCCCCCCCCCC(=O)NCCCC[C@@H]1NC(=O)[C@H](CCCCN)NC(=O)[C@H](CC(C)C)NC(=O)[C@H](CCCCN)NC(=O)[C@H](CCCCN)NC(=O)[C@H](CCC(N)=O)NC(=O)[C@H](CC(C)C)NC(=O)[C@H](CCCCN)NC(=O)[C@H](CCCCN)NC(=O)[C@H](Cc2ccccc2)NC1=O [BPC502, c(KKLKK(CO-C15H31)FKKLQ)] (cyclo(FKKLQKKLKK(Palmitoyl))) | >50 µM

What value of MIC Ea has been recorded for this entry: CCCCCC(=O)NCCCC[C@@H]1NC(=O)[C@H](CCCCN)NC(=O)[C@H](CCC(N)=O)NC(=O)[C@H](CC(C)C)NC(=O)[C@H](CCCCN)NC(=O)[C@H](CCCCN)NC(=O)[C@@H](Cc2ccccc2)NC(=O)[C@H](CCCCN)NC(=O)[C@H](CCCCN)NC(=O)[C@H](CC(C)C)NC1=O [BPC680, c(KK(CO-nC5H11)LKKfKKLQ)] (cyclo(KK(Hexanoyl)LKK[dF]KKLQ)) 25 to 50 µM
